- tested_on: glycoprotein B of HSV-1 (gB-1) (Human herpesvirus 1, UniProt P10211)
- test_protocol: Luminex multiplex assay, binding to gB-1
- conditions_used: Table 3 summary
- Procedure: FIGS. 9A and 9B are graphs of median fluorescence intensity (MFI) versus IgG concentration (ng/ml), showing the binding of various recombinant antibodies to gB-1 as measured by Luminex multiplex assay. BMPC-23 binds HSV-1 gB (gB-1). The gB-1 binding of the antibodies was determined by Luminex multiplex assay. […] After washing, microspheres were resuspended in PBS containing 1% BSA, 0.05% Tween 20 and 0.05% NaN3 and fluorescent signals from each microsphere were measured in a Bio-Plex® 3D machine. […]
assay_endpoint: Target antigens

INSERT INTO measurements (molecule, result) VALUES
  ('HSV010-13: gB-1 specific mouse monoclonal IgG; IgH SEQ ID NO: 52, IgL SEQ ID NO: 54 (antibody, V domains shown, HSV010-13 heavy chain; HSV010-13 light chain) VH: QVQLQQPGAELVKPGASVKLSCKASGYTFTSYWIHWVKQGPGQGLEWIGMIHPNSGITHYNEKFKTKATLTVDKSSSTAYMQLSSLTSEDSAVCYCARGSSSGSAWFAYWGQGTLVTVSAA VL: DIQMTQSSSYLSESLGGRVTITCKASDHINNWLAWYQQKPGNAPRLLISGATSLETGVPSRFSGSGSGKDYTLSITSLQTEDVATYYCQQYWSSPLTFGAGTKLELKR', 'gB');
